test.method.notes: folding stability dG unfold from trypsin proteolysis; higher = more stable

{"columns": ["chain", "folding stability dG unfold (kcal/mol)"],
 "data": [
  ["SAGIPYRVLELEIPGVGVRVEVRLAPDGRIVEVRVTVVPVPPVPPALPLRPELLVPDEDGRWYSPEELLSAG [r5_685_TrMRF]", 2.68],
  ["SAGGSAGGSMKITKTEEGVYLVEFTLPDGTPLVIPFPTDDPFLTEEQAVEIAKPIAAAFAAAGSAGGSAGGS [r12_642_TrMRF]", 0.84],
  ["SMEEEEEEPEPAPVVVITVEPGETVEQVRAAAREAAEKGMRIVITGLSEEEAKAIAEELGLDVEIEVVEPSA [r9_1207_TrROS_Hall]", 3.01],
  ["MPLGLESERYPNGAPTIESVEVPEDGSVKITLYFPETGEKVEYTLPPNIPPGTEYEIDLPGPTGTGRLRLGS [r1_43_TrMRF]", -0.204],
  ["SAGKKLIIRVEVYRREKNENGEIKKVTETLEVPPGATIEELVKALAPPGYTIRIEIIENGKIIETIEIKSAG [r5_278_TrROS_Hall]", 2.14],
  ["SAGGSAGGSAGGSVTYEADEVEIKEFTDPSTGKKYVTVTFPGPGGPVTTTLPADLIEELSAGGSAGGSAGGS [r10_447_JUSTAS]", 0.96],
  ["SAGGSAGGSGITPAAKKIAAEIEKKYPNEKIKVEEELLPNGYLKIKVTTDNGKKYEIIIKVGGSAGGSAGGS [r20_210_TrMRF]", 2.51]
]}

---

test.method.notes: folding stability dG unfold from trypsin proteolysis; higher = more stable
measured.endpoint: folding stability dG unfold (kcal/mol)

{"columns": ["chain", "measured.result"],
 "data": [
  ["SAGGSAMSKDVLFENGARITKFFPGKNYVIIETSPENPELLKELGITVIKEGPNRIIVPAKDFLDESAGGSA [r15_984_TrMRF]", -1.28],
  ["SAGGIKIERDPNMWKFEIPLPNKPLTIHISQSDGRYTIAIYENGKPIRTVPFPGPVDDAIERALKKLSAGGS [r8_276_TrROS]", 1.66],
  ["SAGKKTVTIVIRLKEPGERLSAEELAALLRELGLPPGAKVTVERRPDGYLVVTVEVDGKTVTIVIELEDSAG [r5_144_TrROS_Hall]", 2.04],
  ["SAGGSAGGSAGGWYRIEIEFGNKPREYVVPGAPPDEAADMLQDPGIKNVKVEPLPPEQLKSAGGSAGGSAGG [r7_502_TrROS]", -0.817],
  ["SAGGEVKPGDKVKVRLRLRVRLEDGEEVEVELEFVEVEVVPLSEEEKEKLEELKKKKPEVDPKNKELLSAGG [r13_330_TrROS_Hall]", 1.61],
  ["SAGGSPATVLSSSTLSTTPLPDGTTLTTSETVTLLPNGEPVVTTTTTTTAPDGSVTTTTTTTPLDAASAGGS [r16_261_JUSTAS]", 1.05],
  ["SAGKIPPIKDIEPNPDNGMLMITIPFPDDGKLKVRIENKGQDQEYEFPPGMSFMIPPSNAPIKIEIEWDSAG [r14_96_TrROS]", 0.858],
  ["SMVIPPGSRAEFRLEDVPVRLEVEEGSGKVHFRVFSPENPDEEVFEAEFDINDLKPLDLPPELREAFEKESA [r9_1051_TrMRF]", 0.652],
  ["SAGGPPRPVRIDIDPDAGSIEIMFPNGWPYEIPIPPDSIDEITLDPNDHVIEIKMPGKEIKFDIEPVSAGGS [r16_104_TrROS]", -0.376],
  ["SAGGSAGGSAGKEKTITVLLEVDGYLVVAEVKLNEDGSLEITSVKVIKLPKPKPSPEALKSAGGSAGGSAGG [r11_843_TrROS_Hall]", 1.07],
  ["SAGGSAPPVKVDVEELDDDLVKVTVTFPGGPFTLKLYKDGKLLKEETVPEDETATFVLPKDALIVGSAGGSA [r15_581_TrMRF]", 0.847],
  ["SAGPEPVIRLAREHLERGEVLRITLTGRSGVPRTFLLRPEDILWFFDNLPDPSDIASVDIETYPLGYPPSAG [r5_956_TrMRF]", 2.17],
  ["SAGGSAGGSAGEPEKPVLVKVILPGGKPLLIPGKREEAKKAVEELEKKGFPVEKAEVFDESAGGSAGGSAGG [r11_946_TrMRF]", -0.485],
  ["SAGGSAGGSVYSAKSPDGYTITISNGGKPITLPVSDPAKAASLTLKTPDGKTATVTIVPASLASAGGSAGGS [r12_730_JUSTAS]", -0.229]
]}

---

test.method.notes: folding stability dG unfold from chymotrypsin proteolysis; higher = more stable

{"columns": ["chain", "folding stability dG unfold / kcal/mol"],
 "data": [
  ["SAGGSAGGKEVKVTLEYDEETGTLTLTVETPDGYVFKLEITFEKDEDGNLKVTIKLEVIPLEDLSAGGSAGG [r6_537_TrROS_Hall]", 4.45],
  ["SAGGSAGGSAGVKRIKDVRNPNGNKIRDVEVEEENDPNGNKYLTIKARHKNGNEQEHTLPSAGGSAGGSAGG [r11_810_TrROS]", 0.568],
  ["SAGGSAGGSAGGGPPVERVTTETILRPDGTTTTTRKTTVVPPTDTVTTTTTTLTTTPVTSAGGSAGGSAGGS [r10_1139_JUSTAS]", 0.328],
  ["SAGGMYMVQIEVRSPDKEIPFMIMVPEDDPKKIVDDIKEEIAEEAGADNVNIKIEVYRMDENGEWEWISAGG [r13_877_TrROS]", 1.01],
  ["SAGGSPTREVVLPTKDPTADKAFYTVRITLTEPPSNSTAVTVTFLDLPPDVEPSPELVAAVEAALSSAGGSA [r2_7_JUSTAS]", 0.436],
  ["SAGMKSLTITETVTDPNSDNPITIITDPVTGKVIKLYPDGTATVYDPNNPNKSTTYKMSPEEVIEKMSSSAG [r5_491_JUSTAS]", 0.967],
  ["SAEEVEIEIEIVIKMSEEEAERLAKELAEELARELGAEIVDVEVEVVEVDGELYVRIRVKIRLPKEELESAG [r14_219_TrROS_Hall]", 4.7]
]}

---

test.method.notes: folding stability dG unfold (combined trypsin and chymotrypsin); higher = more stable

{"columns": ["chain", "limit.operator", "folding stability dG unfold, kcal/mol"],
 "data": [
  ["SAGGPMKVKVTLIVRDKETGEWKEVEREMTLDELRELLASLPPDAEVFVKIEVDGKTVTLSLEELKALSAGG [r13_254_TrROS_Hall]", "=", 4.29],
  ["SAGGSMLTPDQVIELPDPNVTATITESEVLEEDPEHGTLLVKYLVVISKNGNPVEEERLLRVPKPVSAGGSA [r2_272_JUSTAS]", "=", -0.01],
  ["SAGGGRPILFRPPDGSVEVVPVPADATLEEVKEVAEAAAAARGYTELSFDPATETVTIDLGGDRVEAASAGG [r13_572_JUSTAS]", "=", 0.426],
  ["SAGGSAGGSWMYKKNPDGKLEPLPPIRPVPIKIPVPINGRWIPVPIWMTVADIDYIIKEFLKNSAGGSAGGS [r20_148_TrROS]", "=", 1.41],
  ["SAITIMIPPNQTLEEIADELGFPGIKDVKHEPFEPGYYPATFEFPGDPDREIEIMFNPEPDWMMVEVEDSAG [r14_713_TrROS]", "=", 0.0271],
  ["SAGGSAGGWKIIEVDPKKGVVMIEMDPEEGNWYVRVPNGPIQRFDSPEEIEEKFGFPVEIYPLPSAGGSAGG [r6_753_TrROS]", "=", 1.14],
  ["SAGGSIRIYANNVEITDIEIGDDGYIEIKVRMRGPNGQPQEFTLMIRVVPPPPPPKVDPNDPDAKDSAGGSA [r2_368_TrROS]", "=", 3.08],
  ["SAGGKKFKIKEITITYNPDADTVTMTVKLDDGTTVELTFNKETKKLTVKVINKDTGEEKEFEFTLPDSAGGS [r8_363_TrROS_Hall]", "=", 4.77],
  ["SAGGSAGGSAGKIPEIIKKTNAVEKDGKIFLGIKTDGKYYLIELEKKTLKIKKIEPFPDKSAGGSAGGSAGG [r11_808_TrMRF]", "=", 0.488],
  ["SAPPKTRTREIEIRFDDYYVRIKITWTKDGNLKLDIEFQGPNPVMREQIKDFLEELNPDFEITDIEVYRSAG [r14_611_TrROS]", "=", 2.38],
  ["SSVTLVLEKPLPSGKRLVVVTTLKPEPARGTVRLDVTTTTYTFSKTENGEITTSSTTSTSTETVSPEELLSA [r9_1137_JUSTAS]", "=", 2.49],
  ["SMNVKPFSSTISNPAVTVTTPITQPSSGEGTATLTIHRPESVTTTTHPVTDLQALIDSHAAGGVSLTGTSSA [r9_384_JUSTAS]", "<", -1],
  ["SAMKKGEKVKVTLEIEVNGKKYKIELVYDKENNTYTIKIKNEKTGETKTIEVKAKTKEEALEAAKKLLESAG [r14_65_TrROS_Hall]", "=", 2.41],
  ["SAGKKKVIIVKVKPEDLEKLLEAIKKLPKEKVKRIEIEVNGKLYLIEVTDKEIKIYDIETGEEKTIKLSAGG [r19_154_TrROS_Hall]", "=", 2.39]
]}
